# Measurement target: BRM (Homo sapiens, UniProt P51531)
# Sequence (P51531 whole entry): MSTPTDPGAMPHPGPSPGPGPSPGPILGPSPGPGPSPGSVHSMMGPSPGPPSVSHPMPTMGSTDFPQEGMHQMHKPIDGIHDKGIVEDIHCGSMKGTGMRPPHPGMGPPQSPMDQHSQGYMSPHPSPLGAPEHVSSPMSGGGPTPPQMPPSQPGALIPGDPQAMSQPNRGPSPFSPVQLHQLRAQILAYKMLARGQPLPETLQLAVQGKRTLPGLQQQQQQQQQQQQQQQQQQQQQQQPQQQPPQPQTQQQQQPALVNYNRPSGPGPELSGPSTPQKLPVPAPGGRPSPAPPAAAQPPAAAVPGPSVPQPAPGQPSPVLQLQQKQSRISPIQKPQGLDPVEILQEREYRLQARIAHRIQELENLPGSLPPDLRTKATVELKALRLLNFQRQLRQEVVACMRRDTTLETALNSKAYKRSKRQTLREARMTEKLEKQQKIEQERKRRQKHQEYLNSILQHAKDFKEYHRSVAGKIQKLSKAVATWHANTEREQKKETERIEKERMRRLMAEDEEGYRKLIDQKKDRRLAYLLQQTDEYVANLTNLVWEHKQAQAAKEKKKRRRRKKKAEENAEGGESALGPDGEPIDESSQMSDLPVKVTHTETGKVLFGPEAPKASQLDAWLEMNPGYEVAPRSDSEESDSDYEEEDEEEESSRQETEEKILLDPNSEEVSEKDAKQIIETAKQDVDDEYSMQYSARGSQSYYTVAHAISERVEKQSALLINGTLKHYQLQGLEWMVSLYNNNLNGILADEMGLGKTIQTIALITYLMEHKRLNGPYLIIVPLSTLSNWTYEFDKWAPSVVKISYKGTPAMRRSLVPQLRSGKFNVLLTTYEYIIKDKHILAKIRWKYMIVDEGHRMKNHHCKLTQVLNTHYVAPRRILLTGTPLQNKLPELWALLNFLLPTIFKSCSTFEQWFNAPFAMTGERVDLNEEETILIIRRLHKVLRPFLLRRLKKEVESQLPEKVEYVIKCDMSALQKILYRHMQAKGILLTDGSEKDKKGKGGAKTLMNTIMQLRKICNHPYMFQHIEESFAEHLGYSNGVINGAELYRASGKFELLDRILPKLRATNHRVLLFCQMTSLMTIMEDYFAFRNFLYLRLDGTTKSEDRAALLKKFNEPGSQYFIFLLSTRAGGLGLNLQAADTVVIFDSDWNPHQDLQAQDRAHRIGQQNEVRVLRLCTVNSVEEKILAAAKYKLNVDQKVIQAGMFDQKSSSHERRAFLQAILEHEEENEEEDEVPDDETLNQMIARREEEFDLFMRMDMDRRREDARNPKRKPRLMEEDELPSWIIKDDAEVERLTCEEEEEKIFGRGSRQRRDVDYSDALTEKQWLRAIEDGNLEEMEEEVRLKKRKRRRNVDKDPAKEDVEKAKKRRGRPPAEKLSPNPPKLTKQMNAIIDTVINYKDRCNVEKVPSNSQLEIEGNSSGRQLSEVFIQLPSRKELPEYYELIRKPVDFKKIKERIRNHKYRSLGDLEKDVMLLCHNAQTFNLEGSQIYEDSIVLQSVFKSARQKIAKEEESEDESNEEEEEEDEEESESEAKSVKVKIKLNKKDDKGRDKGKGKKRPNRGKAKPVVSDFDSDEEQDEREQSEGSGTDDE
# Experiment notes: ATPase catalytic activity assay (ADP-Glo), BRM
# Setup conditions: 30 nM BRM, 400 μM ATP

[
  {
    "Compound": "Cc1cc(-c2ccc3cnc(CNC(=O)c4ccc5c(c4)[C@](C)(C#N)COC5)cc3n2)on1 [Compound 231]",
    "BRM Max % Inhibition": "91%"
  },
  {
    "Compound": "Cn1nccc(-c2ccc3cnc(CNC(=O)c4ccc5c(c4)[C@](C)(F)COC5)cc3n2)c1=O [Compound 293]",
    "BRM Max % Inhibition": "88%"
  },
  {
    "Compound": "C[C@H](NC(=O)c1ccc2c(c1)[C@](C)(C#N)COC2)c1cc2nc(-c3ccccc3)ccc2cn1 [Compound 87]",
    "BRM Max % Inhibition": "88%"
  },
  {
    "Compound": "COC(=O)N1CCCC(c2ccc3cnc(CNC(=O)c4ccc5c(c4)[C@](C)(C#N)COC5)cc3n2)C1 (stereo partly drawn) [Compound 121]",
    "BRM Max % Inhibition": "81%"
  },
  {
    "Compound": "C[C@@]1(F)COCc2ccc(C(=O)NCc3cc4nc(-c5ccccc5)sc4cn3)cc21 [Compound 300]",
    "BRM Max % Inhibition": "99%"
  },
  {
    "Compound": "COC(=O)N1CCC(C#Cc2ccnc(CNC(=O)c3ccc4c(c3)[C@](C)(C#N)COC4)c2)CC1 [Compound 21]",
    "BRM Max % Inhibition": "78%"
  },
  {
    "Compound": "COc1c(-c2ccc3cnc(CNC(=O)c4ccc5c(c4)[C@](C)(C#N)COC5)cc3n2)cnn1C(F)F [Compound 184]",
    "BRM Max % Inhibition": "94%"
  },
  {
    "Compound": "C[C@@]1(C#N)COCc2ccc(C(=O)NCc3cc4nc(N5CCCCC5)ccc4cn3)cc21 [Compound 103]",
    "BRM Max % Inhibition": "94%"
  },
  {
    "Compound": "C[C@@]1(C#N)COCc2ccc(C(=O)NCc3cc4nc(N5CCCC5=O)ccc4cn3)cc21 [Compound 471]",
    "BRM Max % Inhibition": "96%"
  },
  {
    "Compound": "Cn1cc2c(-c3ccc4cnc(CNC(=O)c5ccc6c(c5)[C@](C)(C#N)COC6)cc4n3)cccc2n1 [Compound 151]",
    "BRM Max % Inhibition": "93%"
  },
  {
    "Compound": "COc1ccc(C)cc1-c1ccc2cnc(CNC(=O)c3ccc4c(c3)[C@](C)(C#N)COC4)cc2n1 [Compound 153]",
    "BRM Max % Inhibition": "87%"
  },
  {
    "Compound": "C[C@@]1(C#N)COCc2ccc(C(=O)NCc3cc4nc(-c5cncc(N6CC(F)C6)n5)ccc4cn3)cc21 [Compound 374]",
    "BRM Max % Inhibition": "101%"
  },
  {
    "Compound": "C[C@@]1(C#N)COCc2ccc(C(=O)NCc3cc4nc(-c5cncc(C(F)F)n5)ccc4cn3)cc21 [Compound 355]",
    "BRM Max % Inhibition": "93%"
  },
  {
    "Compound": "COc1ccc(-c2ccc3cnc(CNC(=O)c4ccc5c(c4)[C@](C)(C#N)COC5)cc3n2)cc1 [Compound 108]",
    "BRM Max % Inhibition": "99%"
  },
  {
    "Compound": "Cc1cnc(CNC(=O)c2ccc3c(c2)[C@](C)(C#N)COC3)cc1C#Cc1ccccc1 [Compound 15]",
    "BRM Max % Inhibition": "94%"
  }
]
